assay: Plasma concentration versus time of Compound I and metabolite Compound III in patients dosed QD or BID with Form B of Compound II plus fulvestrant; format: in vivo, human; conditions: human, plasma, oral, 300 mg, 300 mg QD of Form B, Day 1, 1.0 h, Median; read-out: Compound I Concentration
MEASURE: concentration at 1 h

Inquiry: Please give the measured concentration at 1 h for this compound: `CC(C)N1CCN(c2ccc(Nc3ncc4cc5n(c4n3)C3(CCCCC3)CNC5=O)nc2)CC1`
Reply text: 3.73 ng/mL

* * *

assay: Noncompartmental pharmacokinetic parameters (Cmax, Tmax, AUC, Racc) in QD and BID cohorts of Form B; assay type: in vivo, human; conditions: human, plasma, oral, 300 mg, Cohort 2, 300 mg QD of Form B, Day 1; read-out: Tmax, Median
MEASURE: Tmax (h)
One number for each entry, in h.

Inquiry: Please give the measured Tmax for this compound: `CC(C)N1CCN(c2ccc(Nc3ncc4cc5n(c4n3)C3(CCCCC3)CNC5=O)nc2)CC1`
Reply text: 4
